- Tested on: Arabidopsis thaliana
- Assay Info: Phytotoxicity against Arabidopsis thaliana Col-4 leaves assessed as induction of chlorosis, shriveling or death of leaves […] by detached leaf assay
- Format: organism-based
- Condition Summary: in vivo
Listed next: entries and their corresponding ED50.
Measure: ED50

compound="CC(=O)OC[C@]12CCC(C)=C[C@H]1O[C@@H]1[C@H](OC(C)=O)C[C@@H](OC(C)=O)[C@@]2(C)[C@@]12CO2 [3,4,15-TRIACETOXYSCIRPENOL]" reported_result="6.7 µM"
compound="CC1=C[C@H]2O[C@@H]3[C@H](O)C[C@@H](O)[C@](C)([C@@]2(CO)CC1)[C@@]31CO1 [SCIRPENTRIOL]" reported_result="53.6 µM"
compound="CC(=O)OC[C@]12[C@H](O)C(=O)C(C)=C[C@H]1O[C@@H]1[C@H](OC(C)=O)CC[C@@]2(C)[C@@]12CO2 [3,15-DIACETYLDEOXYNIVALENOL]" reported_result="10 µM"
compound="CC(=O)O[C@@H]1C[C@@H](O)[C@H]2O[C@@H]3C=C(C)C(=O)[C@@H](O)[C@]3(CO)[C@]1(C)[C@@]21CO1 [4-ACETYLNIVALENOL]" reported_result="16.1 µM"
compound="CC(=O)OC[C@]12CCC(C)=C[C@H]1O[C@@H]1[C@H](O)CC[C@@]2(C)[C@@]12CO2 [3-DEACETYLCALONECTRIN]" reported_result="7.6 µM"
compound="CC(=O)O[C@@H]1C[C@]2(C)[C@@]3(CO)[C@H](O)C(=O)C(C)=C[C@H]3O[C@H]1[C@@]21CO1 [3-ACETYLDEOXYNIVALENOL]" reported_result="3.4 µM"
compound="CC(=O)O[C@@H]1CC[C@]2(C)[C@@]3(CO)CCC(C)=C[C@H]3O[C@H]1[C@]21CO1 [15-DEACETYLCALONECTRIN]" reported_result="> 100 µM"
compound="CC1=C[C@H]2O[C@@H]3[C@H](O)CC[C@](C)([C@@]2(C)CC1)[C@@]31CO1 [ISOTRICHODERMOL]" reported_result="3.5 µM"
compound="CC1=C[C@H]2O[C@@H]3[C@H](O)CC[C@](C)([C@@]2(CO)CC1)[C@@]31CO1 [3,15-DIDEACETYLCALONECTRIN]" reported_result="90.1 µM"
compound="CC1=C[C@H]2O[C@@H]3[C@H](O)[C@@H](O)[C@](C)([C@@]2(CO)[C@H](O)C1=O)[C@]31CO1 [NIVALENOL]" reported_result="> 100 µM"
compound="CC(=O)OC[C@]12[C@H](O)C(=O)C(C)=C[C@H]1O[C@@H]1[C@H](O)C[C@@]2(C)[C@]12CO2 [15-ACETYLDEOXYNIVALENOL]" reported_result="1.3 µM"
compound="CC1=C[C@H]2O[C@@H]3[C@H](O)C[C@](C)([C@@]2(CO)[C@H](O)C1=O)[C@]31CO1 [DEOXYNIVALENOL]" reported_result="3.8 µM"
compound="CC1=CC(O)[C@@](C)([C@@]2(C)C[C@@H](O)[C@@H](O)C23CO3)CC1 (stereo partly specified) [ISOTRICHOTRIOL]" reported_result="> 100 µM"
compound="CC(=O)O[C@@H]1CC[C@]2(C)[C@@]3(C)CCC(C)=C[C@H]3O[C@H]1[C@]21CO1 [ISOTRICHODERMIN]" reported_result="8.6 µM"
compound="C=C1CCC[C@]1(C)[C@]1(C)CC=C(C)CC1 [TRICHODIENE]" reported_result="> 100 µM"
compound="CC(=O)OC[C@]12[C@H](O)C(=O)C(C)=C[C@H]1O[C@@H]1[C@H](OC(C)=O)C[C@@H](O)[C@@]2(C)[C@@]12CO2 [3,15-DIACETYLNIVALENOL]" reported_result="2.2 µM"

----------
- Tested on: Arabidopsis thaliana
- Assay Info: Phytotoxicity against Arabidopsis thaliana Col-4 leaves assessed as induction of chlorosis at 100 uM […] by detached leaf assay
- Assay type: organism-based
- Condition Summary: in vivo, 1176 h
Measure: Activity (%)

compound="CC1=CC(O)[C@@](C)([C@@]2(C)C[C@@H](O)[C@@H](O)C23CO3)CC1 (some centres undefined)" unit_symbol=% reported_result=10
compound=CC(=O)O[C@@H]1CC[C@]2(C)[C@@]3(CO)CCC(C)=C[C@H]3O[C@H]1[C@]21CO1 unit_symbol=% reported_result=50
compound=CC1=C[C@H]2O[C@@H]3[C@H](O)[C@@H](O)[C@](C)([C@@]2(CO)[C@H](O)C1=O)[C@]31CO1 unit_symbol=% reported_result=10
compound=C=C1CCC[C@]1(C)[C@]1(C)CC=C(C)CC1 unit_symbol=% reported_result=10

----------
- Assay Info: Phytotoxicity against Arabidopsis thaliana Col-4 leaves assessed as induction of leaf death after 7 weeks post compound application by detached leaf assay
- Format: organism-based
- Condition Summary: Col-4, arabidopsis thaliana, read-out: LD50
Listed next: entries and their corresponding LC50 at 1176 h.
Measure: LC50 at 1176 h (µM)

smiles=CC(=O)O[C@@H]1C[C@]2(C)[C@@]3(CO)[C@H](O)C(=O)C(C)=C[C@H]3O[C@H]1[C@@]21CO1 unit_symbol=µM comparison_operator== reported_result=18.7
smiles=CC1=C[C@H]2O[C@@H]3[C@H](O)[C@@H](O)[C@](C)([C@@]2(CO)[C@H](O)C1=O)[C@]31CO1 unit_symbol=µM comparison_operator=> reported_result=100
smiles=CC(=O)OC[C@]12[C@H](O)C(=O)C(C)=C[C@H]1O[C@@H]1[C@H](OC(C)=O)C[C@@H](O)[C@@]2(C)[C@@]12CO2 unit_symbol=µM comparison_operator== reported_result=4.3
smiles=CC1=C[C@H]2O[C@@H]3[C@H](O)C[C@](C)([C@@]2(CO)[C@H](O)C1=O)[C@]31CO1 unit_symbol=µM comparison_operator== reported_result=23

----------
- Assay Info: Phytotoxicity against Arabidopsis thaliana Col-4 leaves assessed as induction of leaf death after 7 weeks post compound application by detached leaf assay
- Type: organism-based
- Condition Summary: Col-4, arabidopsis thaliana, read-out: LD50
Measure: LC50 at 1176 h (µM)

smiles=CC(=O)O[C@@H]1CC[C@]2(C)[C@@]3(C)CCC(C)=C[C@H]3O[C@H]1[C@]21CO1 measure="LC50 at 1176 h" reported_result=16.1
smiles=CC(=O)OC[C@]12[C@H](O)C(=O)C(C)=C[C@H]1O[C@@H]1[C@H](OC(C)=O)CC[C@@]2(C)[C@@]12CO2 measure="LC50 at 1176 h" reported_result=28.2
smiles=CC(=O)OC[C@]12[C@H](O)C(=O)C(C)=C[C@H]1O[C@@H]1[C@H](O)C[C@@]2(C)[C@]12CO2 measure="LC50 at 1176 h" reported_result=4
